Attribution: patent US12448423

Exercise: for every item that follows, state its recorded kon.
Subject Of Test: T1, HIS-tagged human NKG2D (human, UniProt P26718 73-216, limits assumed)
T1 construct: Captured on HIS1K biosensors; not shown: HIS tag
T1 sequence (looked up): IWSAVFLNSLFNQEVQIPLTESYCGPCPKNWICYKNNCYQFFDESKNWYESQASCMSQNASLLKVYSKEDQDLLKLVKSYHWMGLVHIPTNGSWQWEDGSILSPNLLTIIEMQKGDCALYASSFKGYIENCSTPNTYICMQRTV
Assay: Octet (BLI): His-tagged human NKG2D captured on HIS1K biosensors, dipped into 100 nM bivalent mAb
The reply should contain only the number, in M⁻¹ s⁻¹.

Exercise: Entry XENP27609 (antibody, human IgG1, kappa, V domains shown, humanized bivalent anti-NKG2D mAb, IgG1 with ablation variants; also called mAb C[NKG2D]_H2L1_IgG1_PVA_/S267K) VH: QVQLVQSGAEVKKPGASVKVSCKVSGFSLTIYGVHWVRQAPGQGLEWMGVIWSGGSTDYNAKFQGRVTMTKDNSKRTVYMELSSLRSEDTAVYYCSRKSHDGYYGVMDYWGQGTTVTVSS VL: DIQLTQSPDFQSVTPKEKVTITCRASQSIGTSIHWYQQKPDQSPKLLIKYASESISGIPSRFSGSGSGTDFTLTINSLEAEDAATYYCQQSNTWPLTFGAGTKVEIKR has what kon?
Solution: 518000

Exercise: Same for XENP27593 (antibody, human IgG1, kappa, V domains shown, bivalent anti-NKG2D mAb, IgG1 with ablation variants; also called 6H7E7[NKG2D]_H0L0_IgG1_PVA_/S267K) VH: QVQLQESGPGLVAPSQSLSITCTVSGFSLTSYGVHWIRQPPGKGLEWLGVIWAGGSTNYNSALMSRLSISKDNSKSQVFLKMNSLQIDDTAMYYCARGGYEGAAWFGYWGQGTTVTVSS VL: DIQLTQSPAILSASPGEKVTMTCRASSSVSYMHWYQQKPGSSPKPWIYATSNLASGVPARFSGSGSGTSYSLTISRVEAEDAATYYCQQWNSNPLTFGAGTKLEIKR
Solution: 231000

Exercise: Follow-up item: XENP27611 (antibody, human IgG1, kappa, V domains shown, humanized bivalent anti-NKG2D mAb, IgG1 with ablation variants; also called mAb A[NKG2D]_H1L1_IgG1_PVA_/S267K) VH: QVQLVQSGAEVKKPGASVKVSCKVSGFSLTSYGVHWIRQAPGQGLEWMGVIWAGGSTNYNSKFQGRVTMTKDNSKSTVYMELSSLRSEDTAVYYCARGGYEGAAWFGYWGQGTLVTVSS VL: DIQLTQSPSSLSASVGDRVTITCRASSSVSYMHWYQQKPGKSPKPLIYATSNLASGVPARFSGSGSGTDYTLTISSLQPEDFATYYCQQWNSNPLTFGAGTKVEIKR
Solution: 228000
